# Tested on: LoVo/Dx cells
# experimental-protocol: MTT viability assay, doxorubicin-resistant LoVo/Dx
# Assay type: cell-based, human
# condition-notes: Homo sapiens, LoVo/DX; MTT, 24 h; read-out: CC50 ± SD, LoVo/Dx
Measured CC50, listed per entry.
Hi! Could you send only the number? It should be in µM, unit omitted.

>>> print(df.to_string())
                                   compound  outcome_measure  numeric_readout
0  Cc1ccc(N2CCN(Cn3nc(CNC(=O)c4c(C)cc(C)nc4S)n(C)c3=S)CC2)cc1 [Compound 11]             CC50              255
1  Cc1cc(C)c(C(=O)NCc2nn(CN3CCN(c4ccc([N+](=O)[O-])cc4)CC3)c(=S)n2C(C)C)c(S)n1 [Compound 13]             CC50              419
2  Cc1ccc(N2CCN(Cn3nc(CNC(=O)c4c(C)cc(C)nc4S)n(-c4ccccc4)c3=S)CC2)cc1 [Compound 6]             CC50              195
3  Cc1cc(C)c(C(=O)NCc2nn(CN3CCN(c4ccc([N+](=O)[O-])cc4)CC3)c(=S)n2C)c(S)n1 [Compound 10]             CC50              210
4  O=c1[nH]cc(F)c(=O)[nH]1 [Compound 5-FU, 5-fluorouracil, reference compound]             CC50              226
5  Cc1cc(C)c(C(=O)NCc2nn(CN3CCN(c4cccc(Cl)c4)CC3)c(=S)n2C)c(S)n1 [Compound 9]             CC50              260

Turning now to a further record.
Reported CC50 for Cc1cc(C)c(C(=O)NCc2nn(CN3CCN(c4ccccc4)CC3)c(=S)n2-c2ccccc2)c(S)n1 [Compound 4] was 201

---

# System: Caco-2 cells
# experimental-protocol: MTT viability assay, colorectal cancer cells Caco-2
# Format: cell-based, human
# condition-notes: CC50 CCD 841 CoTr / CC50 Caco-2
// reported SI, Caco-2 per item
Just the number, please.

In [3]: df
Out[3]:
                                   compound  numeric_readout
0  Cc1cc(C)c(C(=O)NCc2nn(CN3CCN(c4ccccc4)CC3)c(=S)n2-c2ccccc2)c(S)n1 [Compound 4]             1.78

Measured SI, Caco-2, Cc1cc(C)c(C(=O)NCc2nn(CN3CCN(c4cccc(Cl)c4)CC3)c(=S)n2C(C)C)c(S)n1 [Compound 12] : 1.39

Field SI, Caco-2 (entry Cc1ccc(N2CCN(Cn3nc(CNC(=O)c4c(C)cc(C)nc4S)n(C)c3=S)CC2)cc1 [Compound 11] ) reads 4.69

Quick note, SI, Caco-2 for Cc1cc(C)c(C(=O)NCc2nn(CN3CCN(c4ccc([N+](=O)[O-])cc4)CC3)c(=S)n2C(C)C)c(S)n1 [Compound 13] landed at 2.98

---

# Test system: LoVo/Dx cells
# experimental-protocol: MTT viability assay, doxorubicin-resistant LoVo/Dx
# Type: cell-based, human
# condition-notes: CC50 CCD 841 CoTr / CC50 LoVo/Dx
# Description: The cytotoxic effects of ten newly synthesized N-Mannich bases were assessed on the normal human intestinal epithelium (CCD 841 CoTr) and cancer cell lines: gastric cancer (EPG) and four colorectal cancer lines (Caco-2, LoVo, LoVo/Dx, and HT-29). Cell viability was evaluated using the MTT assay in accordance with Annex C of ISO 10993-5 [33]. The biological activity of the newly synthesized compounds was assessed in the context of anticancer activity. […]
Marks after values point to notes of the source that are not given here.
We begin with a simple list: items and their reported SI, LoVo/Dx.

Some solved cases for reference:
                                   compound  outcome_measure  result
0  Cc1cc(C)c(C(=O)NCc2nn(CN3CCN(c4ccc([N+](=O)[O-])cc4)CC3)c(=S)n2-c2ccccc2)c(S)n1 [Compound 8]      SI, LoVo/Dx  >>1 ^c
1  Cc1cc(C)c(C(=O)NCc2nn(CN3CCN(c4ccc([N+](=O)[O-])cc4)CC3)c(=S)n2C)c(S)n1 [Compound 10]      SI, LoVo/Dx  >>1 ^c

Now turn to the next compound.
# compound Cc1cc(C)c(C(=O)NCc2nn(CN3CCN(c4cccc(Cl)c4)CC3)c(=S)n2C)c(S)n1 [Compound 9] ; its SI, LoVo/Dx = >>1 ^c

---

# Tested on: Caco-2 cells
# experimental-protocol: MTT viability assay, colorectal cancer cells Caco-2
# Assay type: cell-based, human
# condition-notes: CC50 CCD 841 CoTr / CC50 Caco-2
Marks after values point to notes of the source that are not given here.
Overview of recorded SI, Caco-2 for various compounds

Reference set (2 entries):
>>> print(df.to_string())
                                   compound  result
0  Cc1cc(C)c(C(=O)NCc2nn(CN3CCN(c4cccc(Cl)c4)CC3)c(=S)n2C)c(S)n1 [Compound 9]  >>1 ^c
1  Cc1cc(C)c(C(=O)NCc2nn(CN3CCN(c4ccc([N+](=O)[O-])cc4)CC3)c(=S)n2-c2ccccc2)c(S)n1 [Compound 8]  >>1 ^c

Now for a further compound.
Sample Cc1cc(C)c(C(=O)NCc2nn(CN3CCN(c4ccc([N+](=O)[O-])cc4)CC3)c(=S)n2C)c(S)n1 [Compound 10] ; SI, Caco-2 observed: >>1 ^c
